The values you see were collected from ChEMBL document CHEMBL4725313.

# Lookup of reported IC50 keyed by entry
Assay: Inhibition of Pseudomonas aeruginosa PvdP tyrosinase
Conditions: read-out: IC50
resultType: IC50

[[record]]
samplesmiles = "S=C(NCc1ccccc1)Nc1ccccc1"
recordedvalue = "19.4 µM"

[[record]]
samplesmiles = "Fc1ccc(CCNC(=S)Nc2ccccc2)cc1"
recordedvalue = "22.6 µM"

[[record]]
samplesmiles = "S=C(NCc1c(Cl)cccc1Cl)Nc1ccccc1"
recordedvalue = "7.6 µM"

[[record]]
samplesmiles = "S=C(NCc1ccc(Br)cc1)Nc1ccccc1"
recordedvalue = "23.5 µM"


====

Assay: Inhibition of PvdP tyrosinase in Pseudomonas aeruginosa PAO1 assessed as reduction in pyoverdin production incubated for 24 hrs in low iron medium
pIC50: −log10 of the molar value.
resultType: pIC50

[[record]]
samplesmiles = "S=C(NCc1ccc(Cl)cc1)Nc1ccccc1"
recordedvalue = 4.35

